The origin of these recorded values is patent US20110077248A1.

Known Emax of a selection of compounds
System Name: SIRT1 (Homo sapiens, UniProt Q96EB6)
Construct: His-tag (N); made in house; host or cells: E. coli BL21(DE3), T7-promoter vector
Sequence (Q96EB6 whole entry): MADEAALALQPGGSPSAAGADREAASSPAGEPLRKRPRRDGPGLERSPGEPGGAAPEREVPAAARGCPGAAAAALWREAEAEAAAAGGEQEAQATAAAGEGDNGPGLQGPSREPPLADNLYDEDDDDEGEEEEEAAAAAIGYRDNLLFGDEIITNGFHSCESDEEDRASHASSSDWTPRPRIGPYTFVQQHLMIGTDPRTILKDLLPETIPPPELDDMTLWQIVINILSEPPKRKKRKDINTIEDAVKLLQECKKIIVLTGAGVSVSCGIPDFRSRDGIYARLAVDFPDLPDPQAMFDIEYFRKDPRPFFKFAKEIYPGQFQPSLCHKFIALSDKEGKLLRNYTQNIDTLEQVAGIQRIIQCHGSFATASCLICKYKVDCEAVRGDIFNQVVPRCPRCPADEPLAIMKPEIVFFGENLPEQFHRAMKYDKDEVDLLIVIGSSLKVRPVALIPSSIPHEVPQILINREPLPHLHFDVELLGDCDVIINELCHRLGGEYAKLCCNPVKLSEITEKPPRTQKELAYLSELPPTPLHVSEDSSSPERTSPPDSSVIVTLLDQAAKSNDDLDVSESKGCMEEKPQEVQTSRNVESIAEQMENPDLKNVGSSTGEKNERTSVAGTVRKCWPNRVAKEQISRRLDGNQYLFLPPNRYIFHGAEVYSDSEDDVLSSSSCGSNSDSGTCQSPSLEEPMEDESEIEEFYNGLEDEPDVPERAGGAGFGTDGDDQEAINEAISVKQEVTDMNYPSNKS
Assay: Mass spectrometry based assay for modulators of SIRT1 activity (deacetylation of p53-based acetylated peptide)
Format: biochemical
Run Parameters: percent maximum fold activation of SIRT1

| Compound String | Emax |
| --- | --- |
| Cc1ncccc1-c1nc2c(C(=O)Nc3nccs3)cccn2n1 | < 200% |
| Cc1ncccc1-c1nc2c(C(=O)Nc3cccc(CN4CCOCC4)n3)cccn2n1 | > 200% |
| Cc1ccc(-c2nc3c(C(=O)Nc4nc(CN5CCOCC5)cs4)cccn3n2)cn1 | < 200% |

Then this compound:
Sure, the documented Emax for O=C(Nc1ccncn1)c1nccn2cc(-c3ccccc3C(F)(F)F)nc12 is > 200%
